- System: bedstraw
- Measurement protocol: Test B pre/postemergence bedstraw
- Format: in vivo, Galium aparine
- Condition notes: Postemergence, Rate 62 g/ha; scale 0 to 10, 0 is no effect, 10 is complete control
Experimental readout: Bedstraw plant response rating
Write the number on its own, no unit after it.

(Q) Param item = Cc1ccccc1Cn1c(=O)on(C(=O)N(C)c2ccccc2)c1=O [Compound 85] ; retrieve measured Bedstraw plant response rating.
(A) 0

(Q) Please do the same for CCN(C(=O)n1oc(=O)n(-c2ccc(F)cc2F)c1=O)C1CCCCC1 [Compound 23] as well.
(A) 0

(Q) Please do the same for CC(C)N(C(=O)n1oc(=O)n(C(C)C)c1=O)c1ccccc1 [Compound 113] as well.
(A) 1

(Q) Please do the same for COc1cccc(C)c1-n1c(=O)on(C(=O)N(c2ccccc2)C(C)C)c1=O [Compound 73] as well.
(A) 0

(Q) Please do the same for COc1ccc(-n2c(=O)on(C(=O)N(c3ccc(F)cc3)C(C)C)c2=O)c(OC)c1 [Compound 33] as well.
(A) 0

(Q) Please do the same for CC(C)N(C(=O)n1oc(=O)n(-c2ccccc2OC(F)(F)F)c1=O)c1ccc(F)cc1 [Compound 14] as well.
(A) 0

* * *

For each record, write down the corresponding Soybean plant response rating.
- Test system: soybean
- Measurement protocol: Test B pre/postemergence soybean
- Format: in vivo, Glycine max
- Condition notes: Rate 125 g/ha; Postemergence; scale 0 to 10, 0 no effect, 10 complete control
Write the number on its own, no unit after it.

(Q) Param item = Cc1nn(C)c(C)c1-n1c(=O)on(C(=O)N(c2ccc(F)cc2F)C(C)C)c1=O [Compound 76] ; retrieve measured Soybean plant response rating.
(A) 1

(Q) Please do the same for CC(C)N(C(=O)n1oc(=O)n(-c2ccccc2OC(F)(F)F)c1=O)c1ccc(F)cc1 [Compound 14] as well.
(A) 2

(Q) Please do the same for CC(C)N(C(=O)n1oc(=O)n(-c2ccc(F)cc2F)c1=O)c1ccc(F)cc1F [Compound 22] as well.
(A) 3

(Q) Please do the same for COc1ccc(-n2c(=O)on(C(=O)N(c3ccc(F)cc3)C(C)C)c2=O)c(OC)c1 [Compound 33] as well.
(A) 3

* * *

- Tested on: soybean
- Measurement protocol: Test B pre/postemergence soybean
- Assay type: in vivo, Glycine max
- Condition notes: Postemergence, Rate 125 g/ha; scale 0 to 10, 0 is no effect, 10 is complete control
Experimental readout: Plant response rating, Soybean
Write the number on its own, no unit after it.

(Q) Param item = CCOC(=O)C(C)N(C(=O)n1oc(=O)n(C)c1=O)c1ccc(F)cc1 (centres unmarked) [Compound 365] ; retrieve measured Plant response rating, Soybean.
(A) 0

(Q) Please do the same for CC(C)N(C(=O)n1oc(=O)n(C2CCC2)c1=O)c1ccc(F)cc1F [Compound 351] as well.
(A) 1

(Q) Please do the same for CC(C)N(C(=O)n1oc(=O)n(C2(C)CC2)c1=O)c1ccc(F)cc1F [Compound 363] as well.
(A) 5

(Q) Please do the same for CC(C)N(C(=O)n1oc(=O)n(C2(C)CC2)c1=O)c1ccc(Cl)cc1 [Compound 361] as well.
(A) 4

(Q) Please do the same for CC(C)N(C(=O)n1oc(=O)n(CC2CCCO2)c1=O)c1ccc(F)cc1 (centres unmarked) [Compound 343] as well.
(A) 1

* * *

- System: rape
- Measurement protocol: Test B pre/postemergence rape
- Format: in vivo, Brassica napus
- Condition notes: Rate 500 g/ha, Postemergence; scale 0 to 10, 0 no effect, 10 complete control
For each record, write down the corresponding Plant response rating, Rape.
Write the number on its own, no unit after it.

(Q) Entry CC(C)N(C(=O)n1oc(=O)n(CC2CCOC2)c1=O)c1ccc(F)cc1 (centres unmarked) , system rape: what Plant response rating, Rape was measured?
(A) 2

(Q) Please do the same for CC1CC1n1c(=O)on(C(=O)N(c2ccc(F)cc2F)C(C)C)c1=O (centres unmarked) as well.
(A) 5

(Q) Please do the same for CC1CC1n1c(=O)on(C(=O)N(c2ccc(F)cc2)C(C)C)c1=O (centres unmarked) as well.
(A) 0

(Q) Please do the same for CC(C)N(C(=O)n1oc(=O)n(C2CCC2)c1=O)c1ccc(F)cc1F as well.
(A) 5

(Q) Please do the same for CC(C)N(C(=O)n1oc(=O)n(C)c1=O)c1ccc(F)cc1F as well.
(A) 5

(Q) Please do the same for CC(C)N(C(=O)n1oc(=O)n(N2C(C)CCCC2C)c1=O)c1ccc(F)cc1F (centres unmarked) as well.
(A) 0

(Q) Please do the same for CCOC(=O)C(C)N(C(=O)n1oc(=O)n(C)c1=O)c1ccc(F)cc1 (centres unmarked) as well.
(A) 0

(Q) Please do the same for CC(C)N(C(=O)n1oc(=O)n(C2(C)CC2)c1=O)c1ccc(F)cc1F as well.
(A) 2

* * *

- Tested on: soybean
- Measurement protocol: Test B pre/postemergence soybean
- Type: in vivo, Glycine max
- Condition notes: Rate 62 g/ha, Postemergence; scale of 0 to 10 where 0 is no effect and 10 is complete control
Experimental readout: Soybean plant response rating
Write the number on its own, no unit after it.

(Q) Entry CC1CC1n1c(=O)on(C(=O)N(c2ccc(F)cc2F)C(C)C)c1=O (stereo not shown) [Compound 372] , system soybean: what Soybean plant response rating was measured?
(A) 1

(Q) Please do the same for CCC(CC)n1c(=O)on(C(=O)N(c2ccc(F)cc2)C(C)C)c1=O [Compound 358] as well.
(A) 4

(Q) Please do the same for CC(C)N(C(=O)n1oc(=O)n(C2CCC2)c1=O)c1ccc(F)cc1F [Compound 351] as well.
(A) 1

(Q) Please do the same for CC(C)N(C(=O)n1oc(=O)n(C)c1=O)c1ccc(F)cc1F [Compound 368] as well.
(A) 4

(Q) Please do the same for CC(C)N(C(=O)n1oc(=O)n(CC#N)c1=O)c1ccc(F)cc1 [Compound 395] as well.
(A) 0

(Q) Please do the same for [2H]C([2H])([2H])n1c(=O)on(C(=O)N(c2ccc(F)cc2)C(C)C)c1=O [Compound 245] as well.
(A) 2

(Q) Please do the same for Cc1nc(C)c(Cn2c(=O)on(C(=O)N(c3ccc(F)cc3F)C(C)C)c2=O)s1 [Compound 233] as well.
(A) 3

(Q) Please do the same for CC(C)N(C(=O)n1oc(=O)n(CC2CCOC2)c1=O)c1ccc(F)cc1 (stereo not shown) [Compound 375] as well.
(A) 1

(Q) Please do the same for CC(C)N(C(=O)n1oc(=O)n(C2(C)CC2)c1=O)c1ccc(F)cc1F [Compound 363] as well.
(A) 4

(Q) Please do the same for C=CCn1c(=O)on(C(=O)N(c2ccc(F)cc2F)C2CC2)c1=O [Compound 127] as well.
(A) 0

* * *

- System: purple nutsedge
- Measurement protocol: Test B pre/postemergence purple nutsedge
- Type: in vivo, Cyperus rotundus
- Condition notes: Rate 500 g/ha, Postemergence; scale 0 to 10, 0 no effect, 10 complete control
For each record, write down the corresponding Plant response rating, Nutsedge.
Write the number on its own, no unit after it.

(Q) Param item = CC(C)N(C(=O)n1oc(=O)n(N2CCOCC2)c1=O)c1ccc(F)cc1 ; retrieve measured Plant response rating, Nutsedge.
(A) 0

(Q) Please do the same for CC(C)N(C(=O)n1oc(=O)n(C2(C)CC2)c1=O)c1ccc(F)cc1F as well.
(A) 0

(Q) Please do the same for CC(C)N(C(=O)n1oc(=O)n(C2CCC2)c1=O)c1ccc(F)cc1F as well.
(A) 0

(Q) Please do the same for CC1CC1n1c(=O)on(C(=O)N(c2ccccc2)C(C)C)c1=O (stereo not shown) as well.
(A) 5

* * *

- Tested on: morningglory
- Measurement protocol: Test B pre/postemergence morningglory
- Type: in vivo, Ipomoea hederacea
- Condition notes: Postemergence, Rate 250 g/ha; scale 0 to 10, 0 is no effect, 10 is complete control
Labelling field: enter condition met if recorded Plant response rating, Morningglory is less than 4. Enter condition not met if it equals or exceeds that cut-off.

(Q) Given CC1CC1n1c(=O)on(C(=O)N(c2ccc(F)cc2)C(C)C)c1=O (stereo not drawn) , is recorded Plant response rating, Morningglory strictly lower than 4?
(A) condition not met

(Q) Please do the same for CC(C)N(C(=O)n1oc(=O)n(C2(C)CC2)c1=O)c1ccc(F)cc1F as well.
(A) condition met

(Q) Please do the same for CCOC(=O)C(C)N(C(=O)n1oc(=O)n(C)c1=O)c1ccc(F)cc1 (stereo not drawn) as well.
(A) condition met

(Q) Please do the same for CC(C)Cn1c(=O)on(C(=O)N(c2ccccc2)C(C)C)c1=O as well.
(A) condition not met

(Q) Please do the same for CC1CC1n1c(=O)on(C(=O)N(c2ccc(F)cc2F)C(C)C)c1=O (stereo not drawn) as well.
(A) condition not met
